TARGET SYSTEM: SMARCA4 (Homo sapiens, UniProt P51532)
Construct: endogenous in cells; host or cells: NCI-H929 (ATCC CRL-9068)
Sequence (P51532 whole entry): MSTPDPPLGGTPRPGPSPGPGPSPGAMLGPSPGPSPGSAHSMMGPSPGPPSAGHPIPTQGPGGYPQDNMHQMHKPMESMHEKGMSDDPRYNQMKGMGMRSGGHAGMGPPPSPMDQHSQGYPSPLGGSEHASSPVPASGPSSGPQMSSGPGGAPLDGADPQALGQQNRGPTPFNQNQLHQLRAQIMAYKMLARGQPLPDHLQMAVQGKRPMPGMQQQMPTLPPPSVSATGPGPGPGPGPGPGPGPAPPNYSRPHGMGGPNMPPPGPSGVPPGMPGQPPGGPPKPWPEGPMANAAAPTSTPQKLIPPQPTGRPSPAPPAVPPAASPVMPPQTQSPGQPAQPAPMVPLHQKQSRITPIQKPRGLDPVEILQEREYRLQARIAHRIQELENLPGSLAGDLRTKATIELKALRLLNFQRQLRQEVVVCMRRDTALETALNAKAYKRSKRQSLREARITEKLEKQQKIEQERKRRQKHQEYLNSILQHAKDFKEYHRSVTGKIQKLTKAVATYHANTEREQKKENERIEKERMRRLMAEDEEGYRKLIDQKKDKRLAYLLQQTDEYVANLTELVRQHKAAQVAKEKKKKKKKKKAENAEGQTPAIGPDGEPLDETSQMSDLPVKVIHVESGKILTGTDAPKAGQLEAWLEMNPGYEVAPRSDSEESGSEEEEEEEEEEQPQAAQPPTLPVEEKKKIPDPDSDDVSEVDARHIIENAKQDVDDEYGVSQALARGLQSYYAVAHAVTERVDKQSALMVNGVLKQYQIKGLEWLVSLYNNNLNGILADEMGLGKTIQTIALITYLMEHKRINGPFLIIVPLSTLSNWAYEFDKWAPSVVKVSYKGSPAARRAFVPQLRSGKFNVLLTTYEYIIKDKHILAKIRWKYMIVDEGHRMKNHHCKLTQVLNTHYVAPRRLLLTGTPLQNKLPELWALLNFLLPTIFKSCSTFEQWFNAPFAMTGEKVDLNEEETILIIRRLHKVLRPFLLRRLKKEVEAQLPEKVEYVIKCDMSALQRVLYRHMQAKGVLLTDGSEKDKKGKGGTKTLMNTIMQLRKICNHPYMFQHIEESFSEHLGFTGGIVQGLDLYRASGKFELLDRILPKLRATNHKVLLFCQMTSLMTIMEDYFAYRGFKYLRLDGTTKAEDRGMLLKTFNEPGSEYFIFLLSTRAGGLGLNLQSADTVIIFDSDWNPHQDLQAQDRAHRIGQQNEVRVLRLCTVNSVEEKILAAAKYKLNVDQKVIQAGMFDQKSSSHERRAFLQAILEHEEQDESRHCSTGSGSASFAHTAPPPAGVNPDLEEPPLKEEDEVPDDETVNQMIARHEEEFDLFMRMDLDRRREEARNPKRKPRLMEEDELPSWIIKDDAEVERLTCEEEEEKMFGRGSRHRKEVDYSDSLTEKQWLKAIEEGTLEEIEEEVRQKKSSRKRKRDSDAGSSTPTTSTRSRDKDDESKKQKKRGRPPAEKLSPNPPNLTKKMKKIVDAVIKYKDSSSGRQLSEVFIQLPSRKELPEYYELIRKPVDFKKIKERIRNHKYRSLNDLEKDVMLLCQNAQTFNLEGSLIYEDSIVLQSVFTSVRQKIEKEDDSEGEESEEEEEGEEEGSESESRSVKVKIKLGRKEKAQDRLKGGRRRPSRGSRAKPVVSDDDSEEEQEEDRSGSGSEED
ASSAY REMARKS: SMARCA4 degradation in H929 cells by Western blot
Assay type: cell-based
TEST CONTEXT: NCI-H929, 100 nM, 16 hours
MEASURE NAME: SMARCA4 percent degradation at 0.1 µM (%)

Some solved entries appear below for comparison.
MOLECULE	MEASURE NAME	READOUT VALUE
Cc1ncsc1-c1ccc([C@H](C)NC(=O)[C@@H]2C[C@@H](O)CN2C(=O)[C@@H](NC(=O)CCCCCCCCC(=O)N2CCN(c3cc(-c4ccccc4O)nnc3N)CC2)C(C)(C)C)cc1 [Compound 109]	SMARCA4 percent degradation at 0.1 µM	38
Cc1ncsc1-c1ccc([C@H](C)NC(=O)[C@@H]2C[C@@H](O)CN2C(=O)[C@@H](NC(=O)CC2CCN(c3cc(-c4ccccc4O)nnc3N)CC2)C(C)(C)C)cc1 [Compound 51]	SMARCA4 percent degradation at 0.1 µM	99

[a] Nc1nnc(-c2ccccc2O)cc1N1CCN(CC(=O)Nc2cccc3c2C(=O)N(C2CCC(=O)NC2=O)C3=O)CC1 (centres unmarked) [Compound 41]
[b] Cc1ncsc1-c1ccc([C@H](C)NC(=O)[C@@H]2C[C@@H](O)CN2C(=O)[C@@H](NC(=O)CC2CCN(c3cc(-c4cc(F)ccc4O)nnc3N)CC2)C(C)(C)C)cc1 [Compound 99]
[c] Cc1ncsc1-c1ccc(C(NC(=O)[C@@H]2C[C@@H](O)CN2C(=O)[C@@H](NC(=O)CC2CCN(c3cc(-c4cccc(F)c4O)nnc3N)CC2)C(C)(C)C)C(F)(F)F)cc1 (some centres unmarked) [Compound 76]
Your job: order these 3 records by SMARCA4 percent degradation at 0.1 µM, ascending. Record the ranking as a list of labels in the requested order.
c, a, b
(c: 12%, a: 60%, b: 100%)

---

TARGET SYSTEM: SMARCA2 (Homo sapiens)
Sequence (P51531 whole entry): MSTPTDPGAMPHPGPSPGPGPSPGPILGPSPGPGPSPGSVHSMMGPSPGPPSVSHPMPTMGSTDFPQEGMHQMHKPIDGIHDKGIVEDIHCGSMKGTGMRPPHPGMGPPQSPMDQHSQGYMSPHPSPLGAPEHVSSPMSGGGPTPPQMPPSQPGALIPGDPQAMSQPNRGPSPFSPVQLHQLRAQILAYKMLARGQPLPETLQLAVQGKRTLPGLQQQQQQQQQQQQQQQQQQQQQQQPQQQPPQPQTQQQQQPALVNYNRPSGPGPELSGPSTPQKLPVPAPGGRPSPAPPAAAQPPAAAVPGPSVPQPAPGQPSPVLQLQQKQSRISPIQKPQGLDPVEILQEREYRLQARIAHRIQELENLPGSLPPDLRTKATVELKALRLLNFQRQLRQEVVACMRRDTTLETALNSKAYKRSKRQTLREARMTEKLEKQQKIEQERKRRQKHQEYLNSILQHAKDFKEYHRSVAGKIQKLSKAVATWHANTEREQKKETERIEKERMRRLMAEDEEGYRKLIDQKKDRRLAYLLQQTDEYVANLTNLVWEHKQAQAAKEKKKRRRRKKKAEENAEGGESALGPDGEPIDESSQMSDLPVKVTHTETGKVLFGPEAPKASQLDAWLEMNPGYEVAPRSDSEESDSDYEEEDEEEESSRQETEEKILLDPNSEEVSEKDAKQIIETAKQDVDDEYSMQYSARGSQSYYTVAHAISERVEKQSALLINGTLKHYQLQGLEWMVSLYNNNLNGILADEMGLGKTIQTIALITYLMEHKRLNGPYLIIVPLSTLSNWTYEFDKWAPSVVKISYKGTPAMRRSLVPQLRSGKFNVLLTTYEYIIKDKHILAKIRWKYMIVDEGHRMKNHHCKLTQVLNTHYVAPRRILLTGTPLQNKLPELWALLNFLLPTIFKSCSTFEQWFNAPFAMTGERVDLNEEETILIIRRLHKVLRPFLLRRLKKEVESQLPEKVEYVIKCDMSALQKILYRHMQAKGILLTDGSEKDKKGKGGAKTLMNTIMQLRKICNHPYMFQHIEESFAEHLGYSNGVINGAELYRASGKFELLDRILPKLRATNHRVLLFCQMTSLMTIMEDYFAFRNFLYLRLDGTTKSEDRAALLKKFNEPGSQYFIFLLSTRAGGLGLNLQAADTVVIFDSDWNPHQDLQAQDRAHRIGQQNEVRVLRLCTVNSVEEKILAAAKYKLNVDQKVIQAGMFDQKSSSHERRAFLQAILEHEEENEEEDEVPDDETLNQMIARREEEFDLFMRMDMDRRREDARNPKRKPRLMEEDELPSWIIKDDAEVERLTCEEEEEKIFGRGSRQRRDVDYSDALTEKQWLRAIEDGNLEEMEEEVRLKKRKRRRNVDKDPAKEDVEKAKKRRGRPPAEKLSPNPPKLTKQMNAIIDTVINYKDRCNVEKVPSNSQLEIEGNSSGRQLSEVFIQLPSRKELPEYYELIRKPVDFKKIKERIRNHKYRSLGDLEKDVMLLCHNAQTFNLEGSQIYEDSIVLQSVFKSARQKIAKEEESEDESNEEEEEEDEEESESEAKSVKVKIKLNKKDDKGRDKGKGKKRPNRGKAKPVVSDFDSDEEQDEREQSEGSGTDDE
ASSAY REMARKS: SMARCA2 degradation in H929 cells by Western blot
Type: cell-based
Parameters: endogenous in cells
TEST CONTEXT: 16 hours
MEASURE NAME: SMARCA2 Percent degradation @ 100 nM (%)

Some solved entries appear below for comparison.
COMPOUND	MEASURE NAME	UOM	READOUT VALUE
Cc1ncsc1-c1ccc([C@H](C)NC(=O)[C@@H]2C[C@@H](O)CN2C(=O)[C@@H](NC(=O)C(C)N2CCN(c3cc(-c4ccccc4O)nnc3N)CC2)C(C)(C)C)cc1 (single isomer, unassigned) [Compound 58]	SMARCA2 Percent degradation @ 100 nM	%	100
Nc1nnc(-c2ccccc2O)cc1N1CCN(CC(=O)Nc2cccc3c2C(=O)N(C2CCC(=O)NC2=O)C3=O)CC1 (stereo not drawn) [Compound 41]	SMARCA2 Percent degradation @ 100 nM	%	64
CO[C@@H]1C[C@@H](C(=O)N[C@@H](C)c2ccc(-c3scnc3C)cc2)N(C(=O)[C@@H](NC(=O)CN2CCN(c3cc(-c4ccccc4O)nnc3N)CC2)C(C)(C)C)C1 [Compound 117]	SMARCA2 Percent degradation @ 100 nM	%	45.4
Cc1ncsc1-c1ccc([C@H](C)NC(=O)[C@@H]2C[C@@H](O)CN2C(=O)[C@@H](NC(=O)CCCCCCC(=O)N2CCN(c3cc(-c4ccccc4O)nnc3N)CC2)C(C)(C)C)cc1 [Compound 37]	SMARCA2 Percent degradation @ 100 nM	%	96
Cc1ncsc1-c1ccc([C@H](C)NC(=O)[C@@H]2C[C@@H](O)CN2C(=O)[C@@H](NC(=O)C(C)N2CCN(c3cc(-c4ccccc4O)nnc3N)CC2)C(C)(C)C)cc1 (single isomer, unassigned) [Compound 57]	SMARCA2 Percent degradation @ 100 nM	%	79.6

[A] Cc1ncsc1-c1ccc(CNC(=O)[C@@H]2C[C@@H](O)CN2C(=O)[C@@H](NC(=O)CN2CCN(c3cc(-c4ccccc4O)nnc3N)CC2)C(C)(C)C)cc1 [Compound 39]
[B] Cc1ncsc1-c1ccc([C@H](C)NC(=O)[C@@H]2C[C@@H](O)CN2C(=O)[C@@H](NC(=O)C(C)C2CCN(c3cc(-c4cccc(F)c4O)nnc3N)CC2)C(C)(C)C)cc1 (single isomer, unassigned) [Compound 84]
Problem: Given the entries A and B , determine which has the lower reported SMARCA2 Percent degradation @ 100 nM. Indicate which entry you chose by stating its label.
B
(B: 58%, A: 97%)
